B1: Kinesin-like protein KIF16B, residues 1213 to 1273; numbered along this chain, Q96L93 (parent)
chain: ETWTVFRRYSRFREMHKTLKLKYAELAALEFPPKKLFGNKDERVIAERRSHLEKYLRDFFS

variants of: B1; test: abundance fitness (aPCA) (normalised: wild type 0, dead -1); higher = more abundant; growth selection in yeast, the domain comes from the species named; settings: Homo sapiens
Label scheme for abundance fitness: lower than -0.3 is Condition not met, -0.3 and above is Condition met.

>  <Variant spec>
L26G

>  <Assigned class>
Condition not met

$$$$
>  <Variant spec>
F59M

>  <Assigned class>
Condition met

$$$$
>  <Variant spec>
K35G

>  <Assigned class>
Condition met

$$$$
>  <Variant spec>
V5R

>  <Assigned class>
Condition met

$$$$
>  <Variant spec>
Y55R

>  <Assigned class>
Condition met

$$$$
>  <Variant spec>
Y55L

>  <Assigned class>
Condition met

$$$$
>  <Variant spec>
D58M

>  <Assigned class>
Condition met

$$$$
>  <Variant spec>
S10W

>  <Assigned class>
Condition met

$$$$
>  <Variant spec>
K34A

>  <Assigned class>
Condition met

$$$$
>  <Variant spec>
R57Q

>  <Assigned class>
Condition not met

$$$$
>  <Variant spec>
L26R

>  <Assigned class>
Condition not met

$$$$
>  <Variant spec>
A24P

>  <Assigned class>
Condition not met

$$$$
>  <Variant spec>
A46L

>  <Assigned class>
Condition not met

$$$$
>  <Variant spec>
E25Y

>  <Assigned class>
Condition not met

$$$$
>  <Variant spec>
G38D

>  <Assigned class>
Condition not met

$$$$
>  <Variant spec>
L56V

>  <Assigned class>
Condition met

$$$$
>  <Variant spec>
R8W

>  <Assigned class>
Condition met

$$$$
>  <Variant spec>
R8C

>  <Assigned class>
Condition met

$$$$
>  <Variant spec>
R43N

>  <Assigned class>
Condition met

$$$$
>  <Variant spec>
A24F

>  <Assigned class>
Condition not met

$$$$
>  <Variant spec>
I45W

>  <Assigned class>
Condition met

$$$$
>  <Variant spec>
S10I

>  <Assigned class>
Condition met

$$$$

Source: the Human Domainome abundance scans (Beltran et al. 2025)
